FYI, the data here is from paper PMC6100347.

assay: Stability in human plasma under various storage conditions (QC samples); type: in vitro ADME; details: human plasma, nominal conc. 40 ng/mL; mean ± SD, n = 5; in % (unit assumed)
experimentalEndpoint: Stability, Long-Term (−80 °C for 30 Days)
Number, no unit, nothing else.

Inquiry: Given the entry C/C=C(/C)C(=O)O[C@H]1Cc2cc3ccc(=O)oc3cc2OC1(C)C [DA, decursinol angelate] , report its measured Stability, Long-Term (−80 °C for 30 Days).
Reply text: 99.35

Inquiry: Now try CC1(C)Oc2cc3oc(=O)ccc3cc2C[C@@H]1O [DOH, decursinol] .
Reply text: 106.93

Inquiry: Now try CC(C)=CC(=O)O[C@H]1Cc2cc3ccc(=O)oc3cc2OC1(C)C [D, decursin] .
Reply text: 102.26

Inquiry: Now try CC(C)(O[C@@H]1O[C@H](CO)[C@@H](O)[C@H](O)[C@H]1O)[C@H]1Cc2cc3ccc(=O)oc3cc2O1 [Nodakenin, nodakenin] .
Reply text: 101.90

* * *

assay: Stability in human plasma under various storage conditions (QC samples); format: in vitro ADME; conditions: human plasma, nominal conc. 0.15 ng/mL; −80 °C and room temperature; mean ± SD, n = 5; in % (unit assumed)
experimentalEndpoint: Stability, Freeze-Thaw (3 Cycles)

Inquiry: Given the entry CC(C)(O[C@@H]1O[C@H](CO)[C@@H](O)[C@H](O)[C@H]1O)[C@H]1Cc2cc3ccc(=O)oc3cc2O1 , report its measured Stability, Freeze-Thaw (3 Cycles).
Reply text: 103.49 ± 8.40

Inquiry: Now try C/C=C(/C)C(=O)O[C@H]1Cc2cc3ccc(=O)oc3cc2OC1(C)C [DA, decursinol angelate] .
Reply text: 103.55 ± 8.34

Inquiry: Now try CC(C)=CC(=O)O[C@H]1Cc2cc3ccc(=O)oc3cc2OC1(C)C .
Reply text: 96.54 ± 10.95

Inquiry: Now try CC1(C)Oc2cc3oc(=O)ccc3cc2C[C@@H]1O .
Reply text: 92.06 ± 2.28

* * *

assay: Pharmacokinetic study after oral administration of AGN root extract powder in healthy Korean subjects; type: in vivo, human; settings: male; human plasma, single usual oral dose of 4.6 g AGN root extract powder; mean ± SE, n = 10
experimentalEndpoint: Tmax (min)
Your answer should be a plain number; it is taken to be in min.

Inquiry: Given the entry CC(C)=CC(=O)O[C@H]1Cc2cc3ccc(=O)oc3cc2OC1(C)C [D, decursin] , report its measured Tmax.
Reply text: 26.4

Inquiry: Now try C/C=C(/C)C(=O)O[C@H]1Cc2cc3ccc(=O)oc3cc2OC1(C)C [DA, decursinol angelate] .
Reply text: 18.6

Inquiry: Now try CC(C)(O[C@@H]1O[C@H](CO)[C@@H](O)[C@H](O)[C@H]1O)[C@H]1Cc2cc3ccc(=O)oc3cc2O1 [Nodakenin, nodakenin] .
Reply text: 40.2

Inquiry: Now try CC1(C)Oc2cc3oc(=O)ccc3cc2C[C@@H]1O [DOH, decursinol] .
Reply text: 38.4

* * *

assay: Stability in human plasma under various storage conditions (QC samples); type: in vitro ADME; conditions: extracted human plasma sample, nominal conc. 0.15 ng/mL; mean ± SD, n = 5; in % (unit assumed)
experimentalEndpoint: Stability, Processed Sample (10 °C in Auto Sampler for 24 h)
Number, no unit, nothing else.

Inquiry: Given the entry CC(C)=CC(=O)O[C@H]1Cc2cc3ccc(=O)oc3cc2OC1(C)C [D, decursin] , report its measured Stability, Processed Sample (10 °C in Auto Sampler for 24 h).
Reply text: 100.34

Inquiry: Now try C/C=C(/C)C(=O)O[C@H]1Cc2cc3ccc(=O)oc3cc2OC1(C)C [DA, decursinol angelate] .
Reply text: 111.85

Inquiry: Now try CC(C)(O[C@@H]1O[C@H](CO)[C@@H](O)[C@H](O)[C@H]1O)[C@H]1Cc2cc3ccc(=O)oc3cc2O1 [Nodakenin, nodakenin] .
Reply text: 107.70

Inquiry: Now try CC1(C)Oc2cc3oc(=O)ccc3cc2C[C@@H]1O [DOH, decursinol] .
Reply text: 102.43

* * *

assay: Stability in human plasma under various storage conditions (QC samples); assay type: in vitro ADME; conditions: extracted human plasma sample, nominal conc. 40 ng/mL; mean ± SD, n = 5; in % (unit assumed)
Provide the reported Stability, Processed Sample (10 °C in Auto Sampler for 24 h) of each item.

Inquiry: Given the entry C/C=C(/C)C(=O)O[C@H]1Cc2cc3ccc(=O)oc3cc2OC1(C)C [DA, decursinol angelate] , report its measured Stability, Processed Sample (10 °C in Auto Sampler for 24 h).
Reply text: 103.88 ± 3.51

Inquiry: Now try CC1(C)Oc2cc3oc(=O)ccc3cc2C[C@@H]1O .
Reply text: 104.77 ± 2.48

Inquiry: Now try CC(C)=CC(=O)O[C@H]1Cc2cc3ccc(=O)oc3cc2OC1(C)C .
Reply text: 108.94 ± 11.50

Inquiry: Now try CC(C)(O[C@@H]1O[C@H](CO)[C@@H](O)[C@H](O)[C@H]1O)[C@H]1Cc2cc3ccc(=O)oc3cc2O1 .
Reply text: 103.17 ± 10.19

* * *

experiment: Stability in human plasma under various storage conditions (QC samples); type: in vitro ADME; settings: human plasma, nominal conc. 40 ng/mL; measured vs initial value, mean ± SD, n = 5; in % (unit assumed)
Provide the reported Stability, Bench-Top (8 h at Room Temperature) of each item.
Number, no unit, nothing else.

Inquiry: Given the entry CC(C)(O[C@@H]1O[C@H](CO)[C@@H](O)[C@H](O)[C@H]1O)[C@H]1Cc2cc3ccc(=O)oc3cc2O1 , report its measured Stability, Bench-Top (8 h at Room Temperature).
Reply text: 107.91

Inquiry: Now try C/C=C(/C)C(=O)O[C@H]1Cc2cc3ccc(=O)oc3cc2OC1(C)C [DA, decursinol angelate] .
Reply text: 107.87

Inquiry: Now try CC1(C)Oc2cc3oc(=O)ccc3cc2C[C@@H]1O .
Reply text: 101.81
